Would you mind telling me the reported ARE-luciferase IC50 of each entry?
Target: T1, human Activin A (R&D Systems) (human, UniProt P08476 311-426)
T1 sequence (looked up): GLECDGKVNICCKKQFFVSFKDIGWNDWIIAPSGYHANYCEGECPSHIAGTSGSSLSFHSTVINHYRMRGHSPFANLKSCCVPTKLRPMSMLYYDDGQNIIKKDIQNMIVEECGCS
Experiment: cell-based or functional assay

Provide ARE-luciferase IC50 for all items below, preserving their order.
1. ATI-1341 [20K Bis-PEG] (designed binder, two Adnectins joined through their tail Cys to the two ends of a 20 kDa bis-PEG, bivalent PEGylated form of the 2987_H07 cysteine mutant) MGVSDVPRDLEVVAATPTSLLISWTLPHAGRAHYYRITYGETGGNSPVQEFTVPGRGVTATISGLKPGVDYTITVYAVTVTTTKVIHYKPISINYRTEGSGCHHHHHH
2. ATI-1106 [40K 2-branch PEG] (designed binder, 40K 2-branch PEG on the Cys of the GSGC tail) MGVSDVPRDLEVVAATPTSLLISWVSPRGRARYYRITYGETGGNSPVQEFTVPGRGSTATISGLKPGVDYTITVYAVTIYRDGMSHHDPISINYRTGSGCHHHHHH
3. ATI-1377 [40K 2-branch PEG] (designed binder, 40K 2-branch PEG on the Cys of the EGSGC tail) MGVSDVPRDLEVVAATPTSLLISWDAPKGLARYYRITYGETGGNSPVQEFTVVGRGNTATISGLKPGVDYTITVYAVTIFRDGPVTWDPISINYRTEGSGCHHHHHH
4. ATI-1379 [40K 2-branch PEG] (designed binder, 40K 2-branch PEG on the Cys of the EGSGC tail) MGVSDVPRDLEVVAATPTSLLISWSLPHQGKANYYRITYGETGGNSPVQEFTVPGRGVTATISGLKPGVDYTITVYAVTVTDTGYLKYKPISINYRTEGSGCHHHHHH
5. ATI-1359 [40K 2-branch PEG] (designed binder, 40K 2-branch PEG on the Cys of the EGSGC tail) MGVSDVPRDLEVVAATPTSLLISWTLPHAGRAHYYRITYGETGGNSPVQEFTVPGRGVTATISGLKPGVDYTITVYAVTVTTTKVIHYKPISINYRTEGSGC

1. 14 nM
2. > 2000 nM
3. > 1000 nM
4. > 1000 nM
5. > 1000 nM
